// provenance: patent US20220211692A1

# target: F508del/F508del CFTR (Homo sapiens, UniProt P13569, DEL508-508)
# Construct: cells isolated from CF patients with the homozygous mutation; endogenous in cells; host or cells: primary human bronchial epithelial (hBE) cells from CF patients homozygous for F508del
# Sequence (P13569 with tags, fused parts or gaps DEL508-508): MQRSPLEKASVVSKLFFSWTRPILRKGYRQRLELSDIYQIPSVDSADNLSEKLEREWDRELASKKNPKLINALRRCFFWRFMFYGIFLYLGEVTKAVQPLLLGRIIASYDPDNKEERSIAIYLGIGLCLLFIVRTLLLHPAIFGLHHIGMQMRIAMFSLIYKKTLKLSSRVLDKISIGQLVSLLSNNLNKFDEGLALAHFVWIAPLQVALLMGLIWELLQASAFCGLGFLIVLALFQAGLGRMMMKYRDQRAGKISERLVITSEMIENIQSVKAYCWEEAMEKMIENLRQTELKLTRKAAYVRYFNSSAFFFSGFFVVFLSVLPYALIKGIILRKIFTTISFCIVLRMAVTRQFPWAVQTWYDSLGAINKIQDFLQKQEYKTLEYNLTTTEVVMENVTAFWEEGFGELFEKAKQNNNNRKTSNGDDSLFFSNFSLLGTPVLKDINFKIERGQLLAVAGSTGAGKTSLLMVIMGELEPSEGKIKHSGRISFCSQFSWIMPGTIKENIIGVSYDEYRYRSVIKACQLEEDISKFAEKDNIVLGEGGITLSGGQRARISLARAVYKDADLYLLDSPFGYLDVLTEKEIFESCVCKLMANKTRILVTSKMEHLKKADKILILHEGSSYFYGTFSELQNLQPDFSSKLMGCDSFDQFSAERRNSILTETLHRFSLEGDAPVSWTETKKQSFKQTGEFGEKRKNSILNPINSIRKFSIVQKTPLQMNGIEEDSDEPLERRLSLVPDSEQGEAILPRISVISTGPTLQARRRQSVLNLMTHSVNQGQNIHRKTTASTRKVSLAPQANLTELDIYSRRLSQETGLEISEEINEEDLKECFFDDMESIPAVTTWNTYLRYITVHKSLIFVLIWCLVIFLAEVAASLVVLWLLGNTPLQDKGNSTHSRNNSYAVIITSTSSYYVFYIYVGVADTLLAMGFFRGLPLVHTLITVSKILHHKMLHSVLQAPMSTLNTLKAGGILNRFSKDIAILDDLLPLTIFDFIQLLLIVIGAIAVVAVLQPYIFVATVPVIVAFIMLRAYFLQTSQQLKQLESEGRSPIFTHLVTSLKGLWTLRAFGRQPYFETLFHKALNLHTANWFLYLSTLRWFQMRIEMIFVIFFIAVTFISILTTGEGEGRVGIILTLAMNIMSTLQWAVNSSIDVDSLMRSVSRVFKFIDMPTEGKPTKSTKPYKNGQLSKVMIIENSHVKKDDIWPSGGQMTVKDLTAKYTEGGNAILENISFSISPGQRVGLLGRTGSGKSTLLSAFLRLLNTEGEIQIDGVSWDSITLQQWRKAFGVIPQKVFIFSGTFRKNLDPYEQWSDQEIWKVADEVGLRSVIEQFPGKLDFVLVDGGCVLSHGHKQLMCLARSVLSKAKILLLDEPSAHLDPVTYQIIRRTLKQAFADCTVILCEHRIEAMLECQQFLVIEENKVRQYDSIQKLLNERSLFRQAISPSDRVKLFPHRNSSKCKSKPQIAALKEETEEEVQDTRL
# protocol_description: Trans-Epithelial Current Clamp (TECC) assay using primary human bronchial epithelial cells
# Format: cell-based
# test_parameters: maximum percent activity relative to positive control (co-corrector 0.15 μM + potentiator 0.45 μM = 100%)
# From the text: A cell-based assay was developed using the primary human bronchial epithelial cells (hBE cells) with F508del/F508del CFTR and other mutations. Primary human bronchial epithelial (hBE) cells from CFTR patients with homozygous F508del/F508del mutation were expanded from 1×10^6 to 250×10^6 cells (Neuberger, T et al., 2011, Methods Mol Biol 741:39-54). […]
observable: Emax (% Dual)

a: COc1ccc(C)cc1[C@@]1(C(=O)NS(=O)(=O)c2cccc3nc(C)ccc23)CC2(CC2)CO1
b: COc1ccc(C)cc1[C@@]1(C(=O)NS(=O)(=O)c2cccc3nc(N)ccc23)C[C@H](c2ccccc2)CO1
c: COc1ccc(C)cc1[C@]1(C(=O)NS(=O)(=O)c2cccc3nc(C)ccc23)CC2(CC2)CO1
Order by Emax (% Dual), ascending. // rank by listing labels in the order requested c, a, b

1: COc1ccc(C)cc1[C@]1(C(=O)NS(=O)(=O)c2cccc3nc(C)ccc23)CC[C@H](c2ccccc2)O1
2: COc1ccc(C)cc1[C@@]1(C(=O)NS(=O)(=O)c2cccc3nc(C)ccc23)C[C@@H](c2ccccc2)CO1
Problem: Given the entries 1 and 2 , determine which has the lower reported Emax (% Dual). State the label of the item chosen. 1
(1: 158 % Dual, 2: 263 % Dual)

P: COc1cccc([C@H]2CO[C@@](C(=O)NS(=O)(=O)c3cccc4nc(C)ccc34)(c3cc(C)ccc3OC)C2)c1
Q: COc1ccc(C)cc1[C@@]1(C(=O)NS(=O)(=O)c2cccc3nc(C)ccc23)CC[C@H](c2ccccc2)O1
// compare measured Emax (% Dual) between P and Q ; output the lower one Refer to your chosen entry by its label in the reply. P
(P: 216 % Dual, Q: 315 % Dual)

1: COc1ccc(C)cc1[C@@]1(C(=O)NS(=O)(=O)c2cccc3nc(N)ccc23)CC(C)(C)CO1
2: CCc1ccc(Oc2cccnc2OC)c([C@]2(C(=O)NS(=O)(=O)c3cccc4nc(C)ccc34)CCCO2)c1
Lower value for measured Emax (% Dual)? Options: 1 , 2 Please identify the chosen entry by its label. 2
(2: 167 % Dual, 1: 248 % Dual)

A: COc1ccc(C)cc1[C@@]1(C(=O)NS(=O)(=O)c2cccc3nc(C)ccc23)C[C@H](OC)CO1
B: COc1ccc(C)cc1[C@@]1(C(=O)NS(=O)(=O)c2cccc3nc(C)ccc23)C[C@H](c2ccccc2)CO1
Kindly compare A with B and tell me which has the lower Emax (% Dual) figure. Choose, then provide that item's label. A
(A: 182 % Dual, B: 264 % Dual)

----------
# target: F508del/F508del CFTR (Homo sapiens, UniProt P13569, DEL508-508)
# Construct: cells isolated from CF patients with the homozygous mutation; endogenous in cells
# protocol_description: Trans-Epithelial Current Clamp (TECC) assay using primary human bronchial epithelial cells
# test_parameters: primary hBE cells F508del/F508del; test corrector with co-corrector and potentiator, 18-24 hours; equivalent CFTR current
observable: EC50 (nM)

compound: COc1ccc([C@H]2CO[C@@](C(=O)NS(=O)(=O)c3cccc4nc(C)ccc34)(c3cc(C)ccc3OC)C2)cc1 [Example 45]
EC50, nM: 36.3
//
compound: CCc1ccc(Oc2ccccc2)c([C@]2(C(=O)NS(=O)(=O)c3cccc4nc(C)ccc34)CCCO2)c1 [Example 22]
EC50, nM: 589

1: COc1ccccc1[C@@H]1CO[C@@](C(=O)NS(=O)(=O)c2cccc3nc(C)ccc23)(c2cc(C)ccc2OC)C1 [Example 39]
2: CCc1ccc(Oc2ccccc2)c(C2(C(=O)NS(=O)(=O)c3cccc4nc(C)ccc34)CCCO2)c1 (centres unmarked) [Example 17]
3: COc1ccc(C)cc1[C@@]1(C(=O)NS(=O)(=O)c2cccc3nc(C)ccc23)CC[C@@H](c2ccccc2)O1 [Example 8]
4: CCc1ccc(Oc2cccnc2OC(F)F)c([C@]2(C(=O)NS(=O)(=O)c3cccc4nc(C)ccc34)CCCO2)c1 [Example 26]
5: CCOc1ccc(C)cc1[C@@]1(C(=O)NS(=O)(=O)c2cccc3nc(C)ccc23)CCCO1 (single isomer, unassigned) [Example 2]
# desc sort on EC50 across 5 compounds Dear reader, please state the labels in the requested order. 4, 5, 1, 2, 3
(4: 171 nM, 5: 82.5 nM, 1: 26.1 nM, 2: 11.5 nM, 3: 3.2 nM)

I: COc1ccc(C)cc1[C@@]1(C(=O)NS(=O)(=O)c2cccc3nc(C)ccc23)C[C@H](c2ccccc2)CO1 [Example 33]
II: COc1ccc([C@@H]2CO[C@@](C(=O)NS(=O)(=O)c3cccc4nc(C)ccc34)(c3cc(C)ccc3OC)C2)cc1 [Example 44]
// pick min by EC50: I , II Respond with the label that goes with your answer. II
(II: 11.6 nM, I: 20.1 nM)

A: COc1ccccc1[C@@H]1CO[C@@](C(=O)NS(=O)(=O)c2cccc3nc(N)ccc23)(c2cc(C)ccc2OC)C1 [Example 40]
B: COc1ccc(C)cc1[C@]1(C(=O)NS(=O)(=O)c2cccc3nc(N)ccc23)CC(C)(C)CO1 [Example 34]
C: COc1ccc(C)cc1[C@@]1(C(=O)NS(=O)(=O)c2cccc3nc(C)ccc23)CC(C)(C)CO1 [Example 5]
D: COc1ccc(C)cc1[C@@]1(C(=O)NS(=O)(=O)c2cccc3nc(C)ccc23)CC2(CC2)CO1 [Example 15]
// ranking: key=EC50, reverse=True Write the labels, ordered according to the request. D, B, C, A
